B1: VH:VL chains; a variant is named by its letters at X, in order (parent)
chain 1: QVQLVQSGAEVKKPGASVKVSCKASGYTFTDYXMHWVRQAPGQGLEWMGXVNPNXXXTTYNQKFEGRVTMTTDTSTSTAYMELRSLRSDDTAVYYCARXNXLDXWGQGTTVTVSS
chain 2: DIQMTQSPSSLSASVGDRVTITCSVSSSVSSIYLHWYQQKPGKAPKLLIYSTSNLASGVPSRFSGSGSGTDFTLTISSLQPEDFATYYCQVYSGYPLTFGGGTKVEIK

variants of: B1; assay: yeast display scFab, FACS + sequencing; conditions: with MET
Some of the results follow. No count for the full screen is at hand.

>  <Variant Id>
DEGGGSSA

>  <antigen binding call>
no binding

$$$$
>  <Variant Id>
VEARGDWV

>  <antigen binding call>
no binding

$$$$
>  <Variant Id>
VAGTDAGA

>  <antigen binding call>
no binding

$$$$
>  <Variant Id>
FTGEAAGD

>  <antigen binding call>
no binding

$$$$
>  <Variant Id>
YKEKGDGA

>  <antigen binding call>
no binding

$$$$
>  <Variant Id>
YRGRGVWV

>  <antigen binding call>
binds

$$$$
>  <Variant Id>
YKARGAWA

>  <antigen binding call>
binds

$$$$
>  <Variant Id>
FAGGGDGA

>  <antigen binding call>
no binding

$$$$
